- target.of.assay: CTLA4 (human)
- Sequence (chain, as listed by the source): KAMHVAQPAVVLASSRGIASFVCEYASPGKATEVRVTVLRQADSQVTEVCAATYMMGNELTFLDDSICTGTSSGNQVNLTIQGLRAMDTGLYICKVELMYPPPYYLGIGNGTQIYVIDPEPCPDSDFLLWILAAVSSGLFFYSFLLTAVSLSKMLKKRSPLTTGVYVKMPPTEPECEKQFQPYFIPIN
- protocol.description: flow cytometry, CHO cells stably expressing CTLA4
Recorded measurements of MFI at 33.3 nM, one per entry
value.type: MFI at 33.3 nM (MFI)

binder	value.type	numeric.readout
CD80 variant V22A/E23D/Q33L/E35D/M47V IgV-Fc (Fc fusion) VIHVTKEVKEVATLSCGHNVSADELAQTRIYWLKDKKMVLTMMSGDVNIWPEYKNRTIFDITNNLSIVILALRPSDEGTYECVVLKYEKDAFKREHLAEVT	MFI at 33.3 nM	3640
CD80 variant H18Y/Q33L/E35D/M47I IgV-Fc (Fc fusion) VIHVTKEVKEVATLSCGYNVSVEELAQTRIYWLKDKKMVLTMMSGDINIWPEYKNRTIFDITNNLSIVILALRPSDEGTYECVVLKYEKDAFKREHLAEVT	MFI at 33.3 nM	5540
CD80 variant A26E/E35D/M43T/M47L/L85Q/R94Q IgV-Fc (Fc fusion) VIHVTKEVKEVATLSCGHNVSVEELEQTRIYWQKDKKMVLTMTSGDLNIWPEYKNRTIFDITNNLSIVILALRPSDEGTYECVVQKYEKDAFKQEHLAEVT	MFI at 33.3 nM	278000
CD80 variant H18Y/A26E/Q33L/E35D/M47L/L85Q IgV-Fc (Fc fusion) VIHVTKEVKEVATLSCGYNVSVEELEQTRIYWLKDKKMVLTMMSGDLNIWPEYKNRTIFDITNNLSIVILALRPSDEGTYECVVQKYEKDAFKREHLAEVT	MFI at 33.3 nM	2090
